Source of measurements: PubChem BioAssay AID1566

ASSAY DETAILS: inhibition of NOD2-driven NF-kB reporter – cell-based, luminescence, uHTS, HEK293 (AID 1566)
RUN PARAMETERS: HEK293 NOD2/NF-kB luciferase reporter, at 4 µM, stronger effect = higher value
Among all 290,000 compounds or so, about 1,800 (0.62%) were called active. The sample holds actives, similar compounds and a random draw of the others, so the mix is not that of the screen.
Assign inhibition to each entry below.
Answers are plain numbers, in %.

>>> df
                                   compound  test_result
0  OCCN1CCN(CC(O)COc2ccc(C34CC5CC(CC(C5)C3)C4)cc2)CC1 (configuration not stated)            6
1                 CCN(CC)c1ncnc2ccc(Br)cc12         65.5
2  COc1cc(NC(=O)COc2ccc(Cl)cc2)ccc1-c1cc2ccccc2oc1=O         16.1
3           CN(Cc1ccccc1)c1ncnc2ccc(Br)cc12         20.7
4  CC1(C)Cc2c(c(-c3ccco3)nc3sc4c(NCCO)ncnc4c23)CO1         16.6
5  OCCN(CCO)CC(O)COc1ccc(C23CC4CC(CC(C4)C2)C3)cc1 (configuration not stated)         51.5

Now examine the next entry.
Note to self: inhibition recorded for CC(=O)NNC(=S)NC(=O)c1cccc([N+](=O)[O-])c1 was 14.7

====

ASSAY DETAILS: inhibition of NOD2-driven NF-kB reporter – cell-based, luminescence, uHTS, HEK293 (AID 1566)
RUN PARAMETERS: HEK293 NOD2/NF-kB luciferase reporter, at 4 µM, stronger effect = higher value
Hit rate of the full screen: of about 290,000 compounds, about 1,800 (0.62%) were called active. This excerpt belongs to a sample that is enriched for actives.
REPORTED ENDPOINT: inhibition

In [3]: df
Out[3]:
                                   compound       test_result
0  Cc1ccc(Cn2c(SC3CCOC3=O)nc3ccccc3c2=O)cc1 (stereo not drawn)  -3.1% (inactive)

Respectfully, I request inhibition for each entry included below.
1. O=C1OC(c2ccccc2)c2ccccc21 (stereo not drawn)
2. COc1ccc(S(=O)(=O)N2CCN(CC(O)COc3ccc(C#N)cc3)CC2)cc1OC (stereo not drawn)

1. -11.5% (inactive)
2. 1.5% (inactive)

Could I get inhibition for every one of these entries?
1. COc1cc(S(=O)(=O)N2CCCCCC2)ccc1-n1cnnn1
2. CCOc1ccc(/C=C/C(=O)Nc2ccc3[nH]c(=O)[nH]c3c2)cc1
3. O=C(N/N=C/c1ccccc1O)C1CC(=O)N(c2ccc(Cl)cc2)C1 (stereo not drawn)
4. Cc1n(Cc2ccccc2)c2ccccc2[n+]1Cc1ccccc1
5. CCn1c(SCC(=O)N2CCc3ccccc3C2)nc2sc(C)c(C)c2c1=O
6. Cc1oc(-c2ccc(Cl)cc2)nc1CS(=O)CC(=O)NCCCN1CCOCC1 (stereo not drawn)
7. COc1cc(NC(=O)CCS(=O)(=O)c2ccc3c(c2)n(C)c(=O)c(=O)n3C)cc(OC)c1

["7.9% (inactive)", "6.2% (inactive)", "47.3% (inactive)", "22% (inactive)", "17.7% (inactive)", "16.6% (inactive)", "-1.3% (inactive)"]

====

ASSAY DETAILS: inhibition of NOD2-driven NF-kB reporter – cell-based, luminescence, uHTS, HEK293 (AID 1566)
RUN PARAMETERS: HEK293 NOD2/NF-kB luciferase reporter, at 4 µM
The campaign covered roughly 290,000 compounds. About 1,800 (0.62%) were called active. Cut-off read from the data, not from the text of the source: active = inhibition above about 50%; inactive = the rest. The entries come from a sample that favours actives as a whole.
API: response.call in active, inactive

A selection of reference data follows.
>>> print(df.to_string())
                                   compound  assigned_label
0  COc1ccc(-c2csc(N3CCC(c4ccccc4)CC3)n2)cc1        inactive
1  Cc1sc2nc3c(C(=O)N4CCN(c5ccccn5)CC4)cccn3c(=O)c2c1C        inactive
2  COc1ccc(NC(=O)c2cccc(OC(=S)N3CCOCC3)c2)cc1        inactive
3       OCCNc1nc(C2CC2)nc2c1nnn2Cc1ccccc1Cl        inactive
4                    CCC(=O)Nc1cccc2ccccc12        inactive
5   Cc1nn(-c2nc3ccccc3[nH]2)c(N)c1-c1ccccc1        inactive
6       O=C(CSc1nc2ccccc2s1)CSc1nc2ccccc2s1        inactive
7         CC(C)(C)C(=O)C[n+]1cccc(C(N)=O)c1        inactive
8   CCc1nnc(NC(=O)COc2ccccc2[N+](=O)[O-])s1        inactive
9              CC(=O)c1cc(CC=C(C)C)c(O)cc1O        inactive

// switching to the query compound
// return assay outcome for Cc1nn(-c2nc3ccccc3[nH]2)c(=O)c2ccccc12
active

====

Please provide measured inhibition for the entries that follow.
ASSAY DETAILS: inhibition of NOD2-driven NF-kB reporter – cell-based, luminescence, uHTS, HEK293 (AID 1566)
RUN PARAMETERS: HEK293 NOD2/NF-kB luciferase reporter, at 4 µM, stronger effect = higher value
About 1,800 (0.62%) of roughly 290,000 compounds were called active. The list comes from a sample in which actives are over-represented; it also holds close analogues and randomly drawn compounds.
Give bare numbers, in %.

Guide cases for inhibition, answers given:
>>> df
                                   molecule  test_result
0  Cc1ccc2[nH]c(C)c(/C=C/c3cc[n+](C)cc3)c2c1         29.1
1  O=C(CNC(=O)C1COc2ccccc2O1)N/N=C/c1ccc(O)cc1O (stereo not drawn)          8.2

// inhibition lookup, molecule = CCOCC(=O)Nc1ccccc1C(=O)O , result: 5.3

====

ASSAY DETAILS: inhibition of NOD2-driven NF-kB reporter – cell-based, luminescence, uHTS, HEK293 (AID 1566)
RUN PARAMETERS: HEK293 NOD2/NF-kB luciferase reporter, at 4 µM, stronger effect = higher value
The campaign covered roughly 290,000 compounds. About 1,800 (0.62%) were called active. Only a selection was taken, and actives are over-represented in it overall.
REPORTED ENDPOINT: inhibition (%)
Numbers only, in %.

                                   molecule  test_result
0          O=C(CCCOc1ccc(Cl)cc1Cl)Nc1ccccn1         -183
1  CCOc1cc(/C=C2\SC(=O)N(CC(=O)Nc3ccccc3F)C2=O)cc([N+](=O)[O-])c1O         55.8
2     Cc1ccc(C(=O)O/N=C(/c2nonc2N)N(C)C)cc1         12.2
3       Cc1cnc(C(=O)Nc2ccc(N3CCOCC3)cc2)cn1         -3.6
4  CSc1ccc(C2N=C(c3ccccc3)NO2)cc1 (stereo not given)        -83.4

Parameter requested: inhibition. Apply to each item below.
1. CC(C)(C)c1ccc(S(=O)(=O)N2CCC(c3nc4ccc(Cl)cc4[nH]3)CC2)cc1
2. CSc1ccccc1-c1nnc(-c2ccc(Cl)c(Cl)c2)o1
3. COc1cccc(OCC(=O)Nc2ccncc2)c1
4. CC1CCc2sc3ncnc(N4CCN(C)CC4)c3c2C1 (stereo not given)
5. Cc1ccc(NS(=O)(=O)c2cccc(C(=O)NNC(=O)c3cccn3C)c2)c(C)c1
6. Cc1ccc(C(=O)OCC(=O)c2cc(C)n(CC3CCCO3)c2C)cc1 (stereo not given)
7. O=C(COc1ccc(Cl)cc1Cl)Nc1ccc(Cl)cn1

1: -18.9; 2: -48.1; 3: 19.9; 4: 12.6; 5: -2.3; 6: 18.2; 7: -209

====

ASSAY DETAILS: inhibition of NOD2-driven NF-kB reporter – cell-based, luminescence, uHTS, HEK293 (AID 1566)
RUN PARAMETERS: HEK293 NOD2/NF-kB luciferase reporter, at 4 µM, stronger effect = higher value
Screen size: about 290,000 compounds; about 1,800 (0.62%) were called active. This excerpt belongs to a sample that is enriched for actives.
REPORTED ENDPOINT: inhibition

>>> df
                                   compound        test_result
0  COc1ccc(-c2nc(CN3CCN(c4ccccc4OC)CC3)c(C)o2)cc1    1.8% (inactive)
1  COc1ccc(Cl)c(OC)c1C(=O)NC(=O)Nc1nc(C)nc(C)n1    3.1% (inactive)
2    Cc1cc2ncc(C(=O)Nc3ccsc3C(=O)O)c(C)n2n1   20.1% (inactive)
3  COc1ccc(-n2c(=S)[nH]c3cc(C(=O)Nc4cccc(C)c4)ccc3c2=O)cc1    -42% (inactive)
4  CCn1c(=O)c(=O)[nH]c2cc(C(=O)NC(C)c3ccc(S(N)(=O)=O)cc3)ccc21 (configuration not stated)  -19.7% (inactive)

Okay, here is my list. What is inhibition for each of these?
1. CN1CCN(C(=O)C2CC(=O)N(c3ccc(Cl)cc3)C2)CC1 (configuration not stated)
2. Cc1ccccc1Nc1ccc2nonc2c1[N+](=O)[O-]

1. -8.8% (inactive)
2. 17.9% (inactive)
